# targetSystem: Brd4 bromodomain 1 (BRD4(1)) (Homo sapiens)
# Construct: N-terminally His-tagged bromodomains (BRD4(1) at 20 nM and BRD4(2) at 100 nM)
# measurementProtocol: AlphaScreen inhibition of tetra-acetylated histone H4 binding to BRD4(1)
# experimentalConditions: BRD4(1) at 20 nM, tetra-acetylated histone H4 peptide, 30 min incubation; read-out: Alpha Screen BRD4(1)
pIC50: −log10 of the molar value. Counter-ions that a name gives are not always drawn.
Measured pIC50 accompanies every entry in the list below.

molecule: Cc1nn(C)c2ccc(-c3[nH]c(-c4ccccc4)nc3-c3n[nH]c(=O)n3C3CC3)cc12 [Example 15, hydrochloride]
reading: 5.52 to 6.52
--
molecule: Cn1ncc2ccc(-c3[nH]c(-c4ccccc4)nc3-c3n[nH]c(=O)n3C3CCCC3)cc21
reading: 4.52 to 5.52
--
molecule: Cn1ncc2ccc(-c3[nH]c(-c4ccccc4)nc3-c3n[nH]c(=O)n3C3CCC3)cc21
reading: 5.52 to 6.52
--
molecule: COC(=O)c1ccc(C)c(-c2[nH]c(-c3ccccc3)nc2-c2n[nH]c(=O)n2C2CC2)c1 [Example 2, hydrochloride]
reading: 4.52 to 5.52

Then there is this molecule:
Prompt line: What pIC50 appears in the records for this molecule with Brd4 bromodomain 1 (BRD4(1)) (Homo sapiens)? CNC(=O)c1cccc(-c2[nH]c(-c3ccccc3)nc2-c2n[nH]c(=O)n2C2CC2)c1 [Example 3, hydrochloride]
Response line: 4.52 to 5.52
